# SYSTEM: T1, human thyroid-stimulating hormone receptor (TSHR) (human, UniProt P16473 21-764)
# T1 construct: whole, on cells; Overexpressed on 293 cells; also called human TSHR
# T1 sequence (P16473 21-764): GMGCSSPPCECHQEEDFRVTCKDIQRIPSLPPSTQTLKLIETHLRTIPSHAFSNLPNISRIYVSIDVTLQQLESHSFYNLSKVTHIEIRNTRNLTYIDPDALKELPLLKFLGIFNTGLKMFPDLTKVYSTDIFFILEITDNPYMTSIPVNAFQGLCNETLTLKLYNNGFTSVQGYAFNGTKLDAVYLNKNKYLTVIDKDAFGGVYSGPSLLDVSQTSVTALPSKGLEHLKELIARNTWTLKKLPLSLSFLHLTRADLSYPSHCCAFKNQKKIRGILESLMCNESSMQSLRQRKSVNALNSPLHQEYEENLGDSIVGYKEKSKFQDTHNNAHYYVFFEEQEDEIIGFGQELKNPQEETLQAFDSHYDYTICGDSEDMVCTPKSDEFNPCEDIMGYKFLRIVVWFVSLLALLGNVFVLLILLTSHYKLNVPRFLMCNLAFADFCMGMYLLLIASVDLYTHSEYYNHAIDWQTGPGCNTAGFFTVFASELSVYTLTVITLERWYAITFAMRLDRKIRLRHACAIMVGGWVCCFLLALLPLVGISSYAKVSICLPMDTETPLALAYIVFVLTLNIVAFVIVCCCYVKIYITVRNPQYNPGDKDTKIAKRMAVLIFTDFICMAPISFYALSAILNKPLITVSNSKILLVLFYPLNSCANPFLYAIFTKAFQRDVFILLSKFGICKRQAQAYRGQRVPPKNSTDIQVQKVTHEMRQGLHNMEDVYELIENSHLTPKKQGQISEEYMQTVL
# PROTOCOL SUMMARY: flow cytometry (FACS), 293 cells overexpressing human TSHR
Entries and their measured Maximum binding signal follow.
When you answer, write just the number.

# count of solved cases: 3
>  <BINDER>
humanized antibody cAb12-VH3-QG&S-VL3 (antibody, human IgG4 S228P, kappa, V domains shown, Humanized from mAb012) VH: QVQLVQSGAEVKKPGASVKVSCKASGYTFTDYYMNWVKQAPGQGLEWIGVINPYQGESSNNQKFKGRATMTVDKSTSTVYMELSSLRSEDTAVYYCARSYGYGYYFDYWGQGTTVTVSS VL: AIQLTQSPSSLSASVGDRVTITCSATSSVTYMHWYQQKPGKAPKRWIYDTSKLTSGVPPRFSGSGSGTDYTLTISSLQPEDFATYYCQQWSTYPYTFGGGTKLEIKR

>  <Maximum binding signal>
445000

$$$$
>  <BINDER>
humanized antibody cAb21-VH1-VL3 (antibody, human IgG4 S228P, kappa, V domains shown, Humanized from mAb021) VH: QVQLVQSGAEVKKPGASVKVSCKASGYTFSNYWMQWVRQAPGQGLEWMGEIDPADSYTAYSQKFKGRVTMTRDTSTSTVYMELSSLRSEDTAVYYCARRNLLRSGDYWGQGTLVTVSS VL: AIQLTQSPSSLSASVGDRVTITCSASSGITYIHWYQQKPGKAPKRWIYDSSKLASGVPARFSGSGSGTDYTLTISSLQPEDFATYYCQQWSGNPPTFGQGTKLEIKR

>  <Maximum binding signal>
398000

$$$$
>  <BINDER>
humanized antibody cAb21-VH2-VL2 (antibody, human IgG4 S228P, kappa, V domains shown, Humanized from mAb021) VH: QVQLVQSGAEVKKPGASVKVSCKASGYTFSNYWMQWVRQAPGQGLEWIGEIDPADSYTAYSQKFKGRATMTVDTSTSTVYMELSSLRSEDTAVYYCARRNLLRSGDYWGQGTLVTVSS VL: AIQLTQSPSSLSASVGDRVTITCSASSGITYIHWYQQKPGKAPKRWIYDSSKLASGVPSRFSGSGSGTDYTLTISSLQPEDFATYYCQQWSGNPPTFGQGTKLEIKR

>  <Maximum binding signal>
402000

$$$$

Proceeding to the next binder to report its Maximum binding signal.
Qu. Hello, please tell me recorded Maximum binding signal for this one: humanized antibody cAb12-VH1-QG&S-VL3 (antibody, human IgG4 S228P, kappa, V domains shown, Humanized from mAb012) VH: QVQLVQSGAEVKKPGASVKVSCKASGYTFTDYYMNWVRQAPGQGLEWMGVINPYQGESSNNQKFKGRVTMTRDTSTSTVYMELSSLRSEDTAVYYCARSYGYGYYFDYWGQGTTVTVSS VL: AIQLTQSPSSLSASVGDRVTITCSATSSVTYMHWYQQKPGKAPKRWIYDTSKLTSGVPPRFSGSGSGTDYTLTISSLQPEDFATYYCQQWSTYPYTFGGGTKLEIKR
Ans. 420000
